# Test system: CP291
# procedure summary: qHTS profiling for inhibitors of Plasmodium falciparum proliferation (AID 504749); also: nearly all actives have a fitted effect of over 60% in size
# condition description: P. falciparum in erythrocytes, SYBR Green DNA, 72 h; series mostly up to 28.7 µM
Records with an inconclusive call do not appear. The source made the active and inactive calls. Calls follow the shape of the dose curve; as a rule, active = well fitted inhibition curve with a large enough effect; inconclusive = small, poorly fitted or top-dose-only effect; inactive = flat fitted curve, though single readings scatter.
Just give me one of these, please: active, inactive

- molecule: "CC(C)=O"
  label class: "inactive"
- molecule: "CCNC(=O)[C@@H]1CCCN1C(=O)[C@H](CCCN=C(N)N)NC(=O)[C@H](CC(C)C)NC(=O)[C@@H](Cc1c[nH]c2ccccc12)NC(=O)[C@H](Cc1ccc(O)cc1)NC(=O)[C@H](CO)NC(=O)[C@H](Cc1c[nH]c2ccccc12)NC(=O)[C@H](Cc1cnc[nH]1)NC(=O)[C@@H]1CCC(=O)N1"
  label class: "active"
- molecule: "CC1=CCC(C(C)(C)O)CC1 (centres undefined)"
  label class: "inactive"
- molecule: "CO[C@H](C(=O)[C@@H](O)[C@@H](C)O)C1Cc2cc3cc(O[C@H]4C[C@@H](O[C@H]5C[C@@H](O)[C@H](O)[C@@H](C)O5)[C@@H](O)[C@@H](C)O4)c(C)c(O)c3c(O)c2C(=O)[C@H]1O[C@H]1C[C@@H](O[C@H]2C[C@@H](O[C@H]3C[C@](C)(O)[C@H](O)[C@@H](C)O3)[C@H](O)[C@@H](C)O2)[C@H](O)[C@@H](C)O1 (some centres undefined)"
  label class: "active"
- molecule: "CCCCCCCCCCCC[n+]1ccc2ccccc2c1"
  label class: "active"

Query: For "Cc1c(C)c2c(c(C)c1O)CC[C@@](C)(CCC[C@@H](C)CCC[C@@H](C)CCCC(C)C)O2" , what call appears in the results of this test?
Result: inactive

Query: For "Cc1cn([C@H]2C[C@H](O)[C@@H](CO)O2)c(=O)[nH]c1=O" , what call appears in the results of this test?
Result: inactive

Query: For "Nc1c(N=Nc2ccc(-c3ccc(N=Nc4cc(S(=O)(=O)O)c5ccccc5c4N)cc3)cc2)cc(S(=O)(=O)O)c2ccccc12" , what call appears in the results of this test?
Result: inactive

Query: For "Cc1c(C)c2c(c(C)c1O)CC[C@@](C)(CCC[C@H](C)CCC[C@H](C)CCCC(C)C)O2" , what call appears in the results of this test?
Result: inactive

Query: For "CC(C)(C)C(=O)OCOC(=O)[C@@H]1N2C(=O)[C@@H](N=CN3CCCCCC3)[C@H]2SC1(C)C" , what call appears in the results of this test?
Result: inactive

Query: For Oc1cc(O)c2c(c1)OC(c1ccc(O)c(O)c1)C(O)C2 (centres undefined) , what call appears in the results of this test?
Result: inactive

Query: For CCCCCCC(O)C/C=C/CCCCCCCC(=O)O (centres undefined) , what call appears in the results of this test?
Result: inactive

Query: For CN1C(=O)CN2CCc3ccccc3C2c2cc(Cl)ccc21 (centres undefined) , what call appears in the results of this test?
Result: inactive

Query: For "CCN(CC)CCOc1ccc(-c2nc3cc(Cl)ccc3s2)cc1" , what call appears in the results of this test?
Result: inactive

====

# System: DIV17
# procedure summary: qHTS profiling for inhibitors of Plasmodium falciparum proliferation (AID 504749); also: nearly all actives have a fitted effect of over 60% in size
# condition description: P. falciparum in erythrocytes, SYBR Green DNA, 72 h; series mostly up to 28.7 µM
# Method: NIH National Institute of Allergy and Infectious Diseases [NIAID] NIH Chemical Genomics Center [NCGC] […] Because mature erythrocytes lack DNA, only Plasmodium-derived DNA is detected. NCGC Assay Protocol Summary: The SYBR Green viability assay was adapted from a method described previously (Plouffe et al., 2008). […] The following morning, fluorescence intensity at 485(14) nm excitation and 535(25) nm emission wavelengths was measured on an EnVision (Perkin Elmer) plate reader. […]
Inconclusive results are not listed. The source made the active and inactive calls. The call rests on the fitted dose curve; in most records, active means well fitted inhibition curve with a large enough effect; inconclusive means small, poorly fitted or top-dose-only effect; inactive means flat fitted curve, though single readings scatter.
Just give me one of these, please: active, inactive

Below, 3 compounds whose answers are already recorded.
- compound: "O=C1C(=O)c2ncccc2-c2cccnc21"
  label class: "active"
- compound: "O=C(Nc1cccc(C(F)(F)F)c1)c1cc(Br)cc(Br)c1O"
  label class: "active"
- compound: "C[C@@H]1CCC2[C@@H](C)[C@@H](O)O[C@@H]3O[C@@]4(C)CC[C@@H]1[C@@]23OO4 (some centres not stated)"
  label class: "active"

Query: For CC(C(=O)O)c1ccc(N2Cc3ccccc3C2=O)cc1 (configuration not stated) , what call appears in the results of this test?
Result: inactive

Query: For "CN(C)CCCN1c2ccccc2C(C)(C)c2ccccc21" , what call appears in the results of this test?
Result: active

====

# Test system: HaCat
# procedure summary: Cytotoxic Profiling of Annotated Libraries Using Quantitative High-Throughput Screening (AID 1296008); also: % is scaled to controls: 0 for no effect and ±100 for the full control effect; nearly all actives have a fitted effect of over 60% in size
# condition description: Five cell lines viability, CellTiter-Glo ATP luminescence, 48-72 h; active compounds read low
Inconclusive results are not listed.
assay endpoint: max response (%)
Numbers only, in %.

Consider the reported max response for these molecules:
- molecule: "C=CC(C)(O)CO[C@@H]1O[C@H](CO)[C@@H](O)[C@H](O)[C@H]1O (some centres undefined)"
  unit abbreviation: "%"
  max response: -30.3
- molecule: "C=C1C(O[C@@H]2O[C@H](CO)[C@@H](O)[C@H](O)[C@@H]2O)CC2C(C)(C)C(O)CCC2(C)C1CC/C(C)=C\\CO (some centres undefined)"
  unit abbreviation: "%"
  max response: -5.23
- molecule: "CC(c1c[nH]c2ccccc12)C(O)C(=O)O (centres undefined)"
  unit abbreviation: "%"
  max response: -10.2
- molecule: "O=C(OCC12OC1C=CC(OC(=O)c1ccccc1)C2O)c1ccccc1 (centres undefined)"
  unit abbreviation: "%"
  max response: 0.27

Below are some molecules; for each one, tell me its max response.
1. COc1cc2c(cc1O)C1(OC)Cc3ccc4c(c3C1N(C)CC2)OCO4 (centres undefined)
2. NC(=O)[C@H]1CCCCc2c1[nH]c1ccc(Cl)cc21
3. CC(C)=CCC[C@](C)(O[C@@H]1O[C@H](CO[C@@H]2OC[C@@H](O)[C@H](O)[C@H]2O)[C@@H](O)[C@H](O)[C@H]1O)[C@H]1CC[C@]2(C)[C@@H]1[C@H](O)C[C@@H]1[C@@]3(C)CC[C@H](O[C@@H]4O[C@H](CO)[C@@H](O)[C@H](O)[C@H]4O[C@@H]4O[C@H](CO)[C@@H](O)[C@H](O)[C@H]4O)C(C)(C)[C@@H]3CC[C@]12C
4. O=c1c2cccnc2n(-c2cccc([N+](=O)[O-])c2)c(=O)n1Cc1ccncc1

Result:
1. -3.77
2. -14.2
3. -10.6
4. -29.4

Below are some molecules; for each one, tell me its max response.
1. CC12CCC3c4ccc(O)cc4CCC3C1CCC2OC1OC(C(=O)O)C(O)C(O)C1O (centres undefined)
2. CN1C(=O)c2ccccc2-n2c(nc3ccccc3c2=O)/C1=C/c1ccccc1
3. COC(=O)[C@@]1(C)CC[C@]2(C(=O)O[C@@H]3O[C@H](CO)[C@@H](O)[C@H](O)[C@H]3O)CC[C@]3(C)C(=CCC4[C@@]5(C)CC[C@H](O[C@@H]6O[C@H](C(=O)O)[C@@H](O)[C@H](O)[C@H]6O)C(C)(C)C5CC[C@]43C)[C@@H]2C1 (some centres undefined)
4. N#Cc1ccc2[nH]c(O)c(-c3ccc(CN4CCOCC4)cn3)c2c1
5. CO[C@@H]1CC[C@H](OC[C@]2(COC(=O)c3ccc(C)[nH]3)[C@H](OC(C)=O)CC[C@@]3(C)[C@@H]4CC=C(C)[C@@H](C5=C(O)C(=O)OC5O)[C@]4(C)CC[C@@H]32)O[C@H]1C (some centres undefined)
6. C=C1CCC2C(C)(COC3OC(COC(=O)CC(=O)O)C(O)C(O)C3O)CCCC2(C)C1CCC1=CCOC1=O (centres undefined)

Result:
1. 2.12
2. -6.39
3. -2.02
4. -0.0847
5. -0.118
6. -2.95

====

# System: Tov112D
# procedure summary: Primary qHTS to identify gynecologic anti-cancer compounds using libraries of approved drugs and bioactive compounds (AID 1345084); also: % is scaled to controls: 0 for no effect and ±100 for the full control effect; nearly all actives have a fitted effect of over 55% in size
# condition description: Gynecologic cancer cell panel viability, ATPlite luminescence, 48 h; series mostly up to 57.5 µM
Results filed as inconclusive are left out. Active and inactive are the calls of the source. Calls follow the shape of the dose curve; as a rule, active = well fitted cell-killing curve with a large enough effect; inconclusive = small, poorly fitted or top-dose-only effect, or effect the other way; inactive = flat fitted curve, though single readings scatter.
assay endpoint: activity change, negative = cytotoxicity

Consider the reported activity change, negative = cytotoxicity for these molecules:
- molecule: "C/C=C(\\C)C(=O)O[C@H]1[C@@H](O[C@]2(COC(=O)CC(C)C)O[C@H](COC(=O)C(C)C)[C@@H](OC(C)=O)[C@@H]2O)O[C@H](COC(C)=O)[C@@H](O)[C@@H]1O"
  reported result: "inactive"
- molecule: "C[C@@H]1O[C@@H](OC[C@H]2O[C@@H](OCCc3ccccc3)[C@H](O)[C@@H](O)[C@@H]2O)[C@H](O)[C@H](O)[C@H]1O"
  reported result: "inactive"
- molecule: "C=C1CCC2C(OC(=O)C2(O)COC(C)=O)C2C(=C)C(O)CC12 (stereo not drawn)"
  reported result: "inactive"
- molecule: "O=C(NC[C@H](O)CN1CCc2ccccc2C1)c1cc(NC2COC2)ncn1"
  reported result: "inactive"
- molecule: "O=C(NCc1ccc(OC(F)(F)F)cc1)C1c2ccccc2C(=O)N1C1CCOCC1 (stereo not drawn)"
  reported result: "inactive"
- molecule: "CC1CC(O)CC(C)(C)C1(O)CCO (stereo not drawn)"
  reported result: "inactive"
- molecule: "CCc1c(CC(N)=O)c2cc(OCCCP(=O)(O)O)ccc2n1Cc1ccccc1"
  reported result: "inactive"

Query: Give activity change, negative = cytotoxicity for O=C(/C=C/c1ccc(O)cc1)OCC1=CC2OC(=O)C3=CO[C@@H](O[C@@H]4O[C@H](CO)[C@@H](O)[C@H](O)[C@H]4O)[C@H]1[C@@H]32 (stereo partly drawn)
Result: inactive
